Values compiled from the supplement of paper PMC10567573.

B1: EPB41L3 (parent)
chain: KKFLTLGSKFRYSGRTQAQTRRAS

Variants of: B1
ASSAY_PROTOCOL: protein stability index of a GFP-peptide fusion (GPS, HEK-293T) (PSI 1-6); higher = more stable;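 further: lentivirally expressed fusions sorted by FACS into six bins by GFP to DsRed ratio, PSI derived from sequencing read proportions per bin multiplied by bin number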
MEASUREMENT_CONDITIONS: c terminus: a fixed tail appended

RECORD_SEQUENCE: KKFLTLGSKFRYSGRTQAQHRRAS [T20H]
protein stability index: 2.91

RECORD_SEQUENCE: KKFLTLGSKFRYSGRTCAQTRRAS [Q17C]
protein stability index: 2.94

RECORD_SEQUENCE: KKFLTLGSKFRYSGRTQIQTRRAS [A18I]
protein stability index: 2.91
